# assayed_system: Cytochrome P450 2D6 (Homo sapiens, UniProt P10635)
# Sequence (P10635 whole entry): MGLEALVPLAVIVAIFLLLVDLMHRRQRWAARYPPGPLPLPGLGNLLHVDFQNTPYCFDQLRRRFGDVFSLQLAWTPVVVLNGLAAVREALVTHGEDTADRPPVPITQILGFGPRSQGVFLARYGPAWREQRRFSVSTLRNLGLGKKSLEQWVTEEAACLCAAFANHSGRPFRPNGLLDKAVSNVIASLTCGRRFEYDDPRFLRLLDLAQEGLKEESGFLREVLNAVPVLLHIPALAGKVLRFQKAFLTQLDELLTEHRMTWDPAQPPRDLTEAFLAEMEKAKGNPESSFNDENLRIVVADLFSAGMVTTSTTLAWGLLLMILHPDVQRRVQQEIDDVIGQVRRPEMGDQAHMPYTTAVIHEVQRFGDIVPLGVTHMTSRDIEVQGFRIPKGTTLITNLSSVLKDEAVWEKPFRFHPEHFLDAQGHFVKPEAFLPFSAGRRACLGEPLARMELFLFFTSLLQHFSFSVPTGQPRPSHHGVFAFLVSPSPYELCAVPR
# protocol_summary: Time dependent inhibition of CYP2D6 (unknown origin)
# Type: ADME
test_readout: pIC50
Reminder that pIC50 means the negative base-10 logarithm of the concentration expressed in mol/L.

### Prompt Look up pIC50 for this compound: N[C@H]1CCN(c2c(-c3cc(F)cc(Cl)c3)cncc2-c2nc3c(F)cccc3[nH]2)C1
### Response 6.40

----------
# assayed_system: Cytochrome P450 2C19 (Homo sapiens)
# Sequence (P33261 whole entry): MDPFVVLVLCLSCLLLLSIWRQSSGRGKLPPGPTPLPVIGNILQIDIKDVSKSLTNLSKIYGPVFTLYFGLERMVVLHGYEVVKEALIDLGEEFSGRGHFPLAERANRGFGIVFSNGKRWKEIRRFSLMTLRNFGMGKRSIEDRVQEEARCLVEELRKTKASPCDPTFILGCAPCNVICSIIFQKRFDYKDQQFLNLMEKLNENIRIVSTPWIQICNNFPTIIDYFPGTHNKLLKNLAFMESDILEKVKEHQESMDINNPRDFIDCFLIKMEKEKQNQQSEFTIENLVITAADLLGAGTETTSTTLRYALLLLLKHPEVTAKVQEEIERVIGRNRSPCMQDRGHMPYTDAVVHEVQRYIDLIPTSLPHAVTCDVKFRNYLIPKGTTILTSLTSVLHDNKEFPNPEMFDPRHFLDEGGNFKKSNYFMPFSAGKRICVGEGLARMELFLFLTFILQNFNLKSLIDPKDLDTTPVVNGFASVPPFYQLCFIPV
# protocol_summary: Inhibition of CYP2C19 (unknown origin) by fluorescent assay
# Type: ADME
pIC50: −log10 of the molar value.
test_readout: pIC50

### Prompt Look up pIC50 for this molecule: Cc1cccc2[nH]c(-c3cncc(-c4cc(F)cc(C#N)c4)c3N3CC[C@H](N)C3)nc12
### Response < 5.00

----------
# assayed_system: Somatostatin receptor type 3 (Homo sapiens)
# Sequence (P32745 whole entry): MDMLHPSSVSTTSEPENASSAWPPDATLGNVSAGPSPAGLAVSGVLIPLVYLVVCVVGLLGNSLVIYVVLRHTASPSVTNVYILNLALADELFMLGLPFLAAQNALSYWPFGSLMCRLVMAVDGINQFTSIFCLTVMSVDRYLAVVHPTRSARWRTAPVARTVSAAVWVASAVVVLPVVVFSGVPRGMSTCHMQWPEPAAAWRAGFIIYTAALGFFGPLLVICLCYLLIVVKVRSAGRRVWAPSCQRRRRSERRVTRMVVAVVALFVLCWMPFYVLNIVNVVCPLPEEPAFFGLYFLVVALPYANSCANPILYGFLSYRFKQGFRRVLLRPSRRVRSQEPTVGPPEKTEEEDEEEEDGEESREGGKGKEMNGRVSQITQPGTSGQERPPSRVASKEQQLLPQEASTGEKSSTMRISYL
# protocol_summary: Agonist activity at human SST3
test_readout: EC50 (µM)
Lab book: enter the figure in µM, no units written.

### Prompt Look up EC50 for this compound: Cc1ccc(F)c2[nH]c(-c3cncc(-c4cc(F)cc(C#N)c4)c3N3CC[C@H](N)C3)nc12
### Response 0.01

----------
# protocol_summary: Metabolic stability in human liver microsomes assessed as half life
# Format: ADME, Microsome
test_readout: half-life

### Prompt Look up half-life for this molecule: Cc1cccc2[nH]c(-c3cncc(-c4cc(F)cc(C#N)c4)c3N3CC[C@H](N)C3)nc12
### Response > 11.6 h

----------
# assayed_system: Somatostatin receptor type 2 (Homo sapiens, UniProt P30874)
# Sequence (P30874 whole entry): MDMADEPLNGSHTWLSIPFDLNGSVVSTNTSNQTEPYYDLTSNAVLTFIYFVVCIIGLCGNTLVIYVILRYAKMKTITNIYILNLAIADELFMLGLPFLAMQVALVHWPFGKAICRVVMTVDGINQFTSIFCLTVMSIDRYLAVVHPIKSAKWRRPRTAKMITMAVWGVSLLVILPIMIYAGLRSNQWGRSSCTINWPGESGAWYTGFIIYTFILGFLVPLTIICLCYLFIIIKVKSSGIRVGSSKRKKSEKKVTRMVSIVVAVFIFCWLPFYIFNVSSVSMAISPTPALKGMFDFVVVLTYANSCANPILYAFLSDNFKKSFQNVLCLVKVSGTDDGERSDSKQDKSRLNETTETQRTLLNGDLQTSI
# protocol_summary: Agonist activity at human SST2
# Assay type: functional
# experimental_setup: read-out: EC50
test_readout: EC50

### Prompt Look up EC50 for this compound: Cc1cc(F)cc(-c2cncc(-c3nc4cc(F)ccc4[nH]3)c2N2CC(CN)C2)c1
### Response > 1 µM

----------
# protocol_summary: AUC(0 to infinity) in Beagle dog at 5 mg/kg, po
# Format: ADME, organism-based, Canis lupus familiaris
# Set-up: time infinity, dose 5 mg/kg, route po
# experimental_setup: in vivo
test_readout: AUC(0-inf) (ng·h/mL)
Lab book: enter the figure in ng·h/mL, no units written.

### Prompt Look up AUC(0-inf) for this compound: Cc1cccc2[nH]c(-c3cncc(-c4cc(F)cc(C#N)c4)c3N3CC[C@H](N)C3)nc12
### Response 4660

----------
# assayed_system: Cytochrome P450 2D6 (Homo sapiens)
# protocol_summary: Time dependent inhibition of CYP2D6 (unknown origin) preincubated for 30 mins
# Type: ADME
test_readout: pIC50
Reminder that pIC50 means the negative base-10 logarithm of the concentration expressed in mol/L.

### Prompt Look up pIC50 for this compound: N[C@H]1CCN(c2c(-c3cc(F)cc(Cl)c3)cncc2-c2nc3c(F)cccc3[nH]2)C1
### Response 7.05

----------
# assayed_system: Somatostatin receptor type 5 (Homo sapiens, UniProt P35346)
# Sequence (P35346 whole entry): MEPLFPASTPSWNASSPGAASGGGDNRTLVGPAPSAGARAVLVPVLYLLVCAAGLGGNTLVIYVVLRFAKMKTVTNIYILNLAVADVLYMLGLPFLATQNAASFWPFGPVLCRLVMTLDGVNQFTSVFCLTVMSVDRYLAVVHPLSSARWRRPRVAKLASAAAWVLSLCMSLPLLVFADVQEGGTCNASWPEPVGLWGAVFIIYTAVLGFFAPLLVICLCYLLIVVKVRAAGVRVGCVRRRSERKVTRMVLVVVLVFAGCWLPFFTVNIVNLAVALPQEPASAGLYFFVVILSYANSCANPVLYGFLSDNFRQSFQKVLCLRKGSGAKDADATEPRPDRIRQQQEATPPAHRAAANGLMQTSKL
# protocol_summary: Agonist activity at human SST5 expressed in CHO-K1 cells assessed as reduction in NKH477-induced intracellular cAMP level
test_readout: pEC50
Reminder that pEC50 means the negative base-10 logarithm of the concentration expressed in mol/L.

### Prompt Look up pEC50 for this compound: Cc1cccc2c1nc(-c1cncc(-c3cc(F)cc(C#N)c3)c1N1CC[C@H](N)C1)n2C
### Response 8.38

### Prompt Look up pEC50 for this compound: C[C@]1(N)CCN(c2c(-c3cccc(C#N)c3)cncc2-c2nc3c(F)cccc3[nH]2)C1
### Response 10.33

### Prompt Look up pEC50 for this compound: N#Cc1cccc(-c2cncc(-c3nc4c(F)cccc4[nH]3)c2N2CC(N)C(C(F)(F)F)C2)c1 (mixture of isomers)
### Response 7.38
